The measurements presented in this section are drawn from patent US20130295102A1.

- System tested: T1, Human Factor P (human, UniProt P27918 29-469)
- T1 construct: Bought protein (Complement Technology cat# A139) in SET and Biacore; Factor P of human serum in the functional assays; also called FP; human FP
- T1 sequence (P27918 29-469 limits assumed): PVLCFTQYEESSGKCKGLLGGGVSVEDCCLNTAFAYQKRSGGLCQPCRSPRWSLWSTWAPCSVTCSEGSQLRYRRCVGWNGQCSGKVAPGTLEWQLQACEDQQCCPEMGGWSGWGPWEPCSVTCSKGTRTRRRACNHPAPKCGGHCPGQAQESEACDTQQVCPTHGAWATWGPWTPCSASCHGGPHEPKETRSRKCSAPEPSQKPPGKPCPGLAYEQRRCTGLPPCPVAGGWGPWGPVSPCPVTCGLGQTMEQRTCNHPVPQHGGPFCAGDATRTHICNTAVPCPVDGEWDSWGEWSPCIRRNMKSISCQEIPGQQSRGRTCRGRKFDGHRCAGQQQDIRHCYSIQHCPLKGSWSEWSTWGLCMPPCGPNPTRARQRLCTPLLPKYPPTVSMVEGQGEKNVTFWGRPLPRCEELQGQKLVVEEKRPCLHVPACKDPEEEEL
- Test summary: Biacore SPR, captured Factor P
Property measured: kon (M⁻¹ s⁻¹)
Just the number in M⁻¹ s⁻¹, nothing appended.

NVS962-S31A (Fab, V domains shown, NVS962 with heavy chain serine 31 replaced with alanine) VH: EVQLVQSGAEVKKPGSSVKVSCKASGGTFNAYAISWVRQAPGQGLEWMGRIIPIFGTANYAQKFQGRVTITADESTSTAYMELSSLRSEDTAVYYCARHGGYSFDSWGQGTLVTVSS VL: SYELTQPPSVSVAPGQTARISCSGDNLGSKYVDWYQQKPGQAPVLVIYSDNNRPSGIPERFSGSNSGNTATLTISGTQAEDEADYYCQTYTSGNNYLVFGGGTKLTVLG	504000

# lookup: kon of NVS962-S (Fab, V domains shown, NVS962 with heavy chain N30 replaced with serine) VH: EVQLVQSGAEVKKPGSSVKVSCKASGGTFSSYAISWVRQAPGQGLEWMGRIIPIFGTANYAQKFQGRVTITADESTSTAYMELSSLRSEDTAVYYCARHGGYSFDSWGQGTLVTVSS VL: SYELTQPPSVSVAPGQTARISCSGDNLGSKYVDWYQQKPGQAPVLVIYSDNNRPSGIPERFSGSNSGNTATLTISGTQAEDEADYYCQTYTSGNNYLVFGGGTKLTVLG
730000

Quick one: NVS962-Q (Fab, V domains shown, NVS962 with heavy chain N30 replaced with glutamine (deamidation site removed)) VH: EVQLVQSGAEVKKPGSSVKVSCKASGGTFQSYAISWVRQAPGQGLEWMGRIIPIFGTANYAQKFQGRVTITADESTSTAYMELSSLRSEDTAVYYCARHGGYSFDSWGQGTLVTVSS VL: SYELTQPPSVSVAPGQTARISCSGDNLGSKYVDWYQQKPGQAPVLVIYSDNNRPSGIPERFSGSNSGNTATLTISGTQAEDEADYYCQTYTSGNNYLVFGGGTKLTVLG
627000
